target: human gpr-54 receptor (human, UniProt Q969F8 1-398); experiment: cell-based or functional assay
Sequence (Q969F8 whole entry): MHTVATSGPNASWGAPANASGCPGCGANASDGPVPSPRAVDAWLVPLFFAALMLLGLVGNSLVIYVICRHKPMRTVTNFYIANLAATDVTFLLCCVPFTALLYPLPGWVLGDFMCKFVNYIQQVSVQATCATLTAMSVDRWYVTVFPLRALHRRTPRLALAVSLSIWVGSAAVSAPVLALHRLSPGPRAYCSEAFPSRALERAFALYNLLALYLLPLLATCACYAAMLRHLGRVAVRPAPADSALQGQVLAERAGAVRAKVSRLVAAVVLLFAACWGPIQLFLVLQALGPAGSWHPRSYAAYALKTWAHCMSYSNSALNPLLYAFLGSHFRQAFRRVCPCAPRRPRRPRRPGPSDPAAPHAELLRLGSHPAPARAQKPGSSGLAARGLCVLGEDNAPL
Non-standard residues stand in square brackets, D forms with d.
IP stimulation (IC50), peptide alone for assorted binders
Note: unit µM is implicit; provide only the numeric part.

These solved cases illustrate the format of a correct answer.
BINDER	MEASUREMENT_UNITS	IP stimulation (IC50), peptide alone
Ac-[dF]WLRW-NH2 (SMILES CC(=O)N[C@H](Cc1ccccc1)C(=O)N[C@@H](Cc1c[nH]c2ccccc12)C(=O)N[C@@H](CC(C)C)C(=O)N[C@@H](CCCNC(=N)N)C(=O)N[C@@H](Cc1c[nH]c2ccccc12)C(N)=O, kisspeptin-10 analogue; also called ac[F-(D)]WLRW) [203]	µM	150
Ac-[dA]NWNPFG[dW]RF-NH2 (SMILES CC(=O)N[C@H](C)C(=O)N[C@@H](CC(N)=O)C(=O)N[C@@H](Cc1c[nH]c2ccccc12)C(=O)N[C@@H](CC(N)=O)C(=O)N1CCC[C@H]1C(=O)N[C@@H](Cc1ccccc1)C(=O)NCC(=O)N[C@H](Cc1c[nH]c2ccccc12)C(=O)N[C@@H](CCCNC(=N)N)C(=O)N[C@@H](Cc1ccccc1)C(N)=O) [274]	µM	530

With those in mind, consider the next binder.
input: Would you mind telling me what IP stimulation (IC50), peptide alone value was observed for Ac-[dY][dN]WNSFGWRF-NH2 (SMILES CC(=O)N[C@H](Cc1ccc(O)cc1)C(=O)N[C@H](CC(N)=O)C(=O)N[C@@H](Cc1c[nH]c2ccccc12)C(=O)N[C@@H](CC(N)=O)C(=O)N[C@@H](CO)C(=O)N[C@@H](Cc1ccccc1)C(=O)NCC(=O)N[C@@H](Cc1c[nH]c2ccccc12)C(=O)N[C@@H](CCCNC(=N)N)C(=O)N[C@@H](Cc1ccccc1)C(N)=O) [239] ?
output: 0.005
